- Assay: Pharmacokinetics / oral bioavailability in male CD-1 mice
- Format: in vivo
- Test settings: male, CD-1, mouse, in vivo; 10 mg/Kg PO
- Text: Example G. Oral Bioavailability of MGH-CP-715 in Male CD-1Mice
Readout type: Tmax (min)
// return numeric value only (unit: min, not printed)

Looking up O=C(Nc1ccccc1)N1CCN(Cc2cccc(OCCC3CCCCC3)c2)CC1 [MGH-CP-715] , I found its Tmax recorded as 15

###

- Assay: logD 7.4
- Test settings: pH 7.4
Give measured logD for each item. Keep answers brief.
Number only, no unit.

Looking up O=C(Nc1ncccn1)N1CCN(C(=O)c2cccc(OCCC3CCCCC3)c2)CC1 [TM23] , I found its logD recorded as 2.38

Looking up "O=C(Nc1ccccc1)C1CCN(C(=O)Oc2cccnc2)CC1" , I found its logD recorded as 2.16

Looking up O=C(Nc1ccccc1)N1CCN(C(=O)c2cccc(OCCC3CCCCC3)c2)CC1 [TM2] , I found its logD recorded as 4.6

Looking up "O=C(NCCc1cccc(F)c1)C1CCN(C(=O)Oc2ccccc2)CC1" , I found its logD recorded as 2.59

###

- Assay: Metabolic stability MLM
- Test settings: 60 min; % parent remained per Table G2
Give measured Met stab MLM, 60 min for each item. Keep answers brief.

Looking up "O=C(Nc1ccccc1)N1CCN(C(=O)c2ccnc(OCCC3CCCCC3)c2)CC1" , I found its Met stab MLM, 60 min recorded as < 5%

Looking up "O=C(Oc1ccccc1)N1CCN(Cc2cccc(OCCC3CCCCC3)c2)CC1" , I found its Met stab MLM, 60 min recorded as 13%

Looking up "O=C(Nc1ccccc1)N1C[C@@H]2C[C@H]1CN2C(=O)c1cccc(OCCC2CCCCC2)c1" , I found its Met stab MLM, 60 min recorded as < 5%

Looking up "C[C@@H]1CN(C(=O)Nc2ccccc2)[C@@H](C)CN1C(=O)c1cccc(OCCC2CCCCC2)c1" , I found its Met stab MLM, 60 min recorded as < 5%

###

Give measured Aq Sol for each item. Keep answers brief.
- Assay: Aqueous solubility (Aq Sol)
- Assay type: physicochemical

Looking up "O=C(Nc1ccccc1)N1CCN(Cc2cccc(OCCC3CCCCC3)c2)CC1" , I found its Aq Sol recorded as <2 µM

Looking up CC1CN(C(=O)Nc2ccccc2)CCN1C(=O)c1cccc(OCCC2CCCCC2)c1 (stereo not drawn) , I found its Aq Sol recorded as <2 µM

Looking up "O=C(Oc1ccccc1)N1CCN(C(=O)c2cccc(OCCC3CCCCC3)c2)CC1" , I found its Aq Sol recorded as <2 µM
